# TARGET ENTITY: T1, human IL-8 (human, UniProt P10145 23-99, limits assumed)
# T1 construct: also called hIL-8; hIL8
# T1 sequence (P10145 23-99 limits assumed): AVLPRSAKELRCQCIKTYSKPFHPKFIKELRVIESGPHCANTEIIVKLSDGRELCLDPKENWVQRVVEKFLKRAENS
# ASSAY PROTOCOL: SPR Biacore T200, Protein A/G capture, pH 5.8, 37C;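 further: antibodies captured by Protein A/G amine-coupled onto a CM4 sensor chip, with kinetic parameters derived using Biacore T200 Evaluation Software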
MEASURED QUANTITY: koff (s⁻¹)

BINDER | UNIT ANNOTATION | MEASUREMENT
H1022/L0395 (antibody, human IgG1, kappa, name in Kabat numbering, V domains shown) VH: QVQLVESGGGLVQPGGSLRLSCAASGFTFSDYYLSWVRQAPGKGLEWVGLIRNKDNHHHPEYSASVKGRFTISRDDSKNSLYLTMSDLKTEDTAVYYCARENHRYDVELAYWGQGTLVTVSS VL: DIQMTQSPSSLSASVGDRVTITCRASEIIYSYLAWYQQKPGKAPKLLIYKAKTHADGVPSRFSGSGSGTDFTFTISSLQPEDIATYYCKHHFGFPRTFGQGTKVEIKR | s⁻¹ | 12
H1022/L0442 (antibody, human IgG1, kappa, name in Kabat numbering, V domains shown, L442 = L395 + S31E) VH: QVQLVESGGGLVQPGGSLRLSCAASGFTFSDYYLSWVRQAPGKGLEWVGLIRNKDNHHHPEYSASVKGRFTISRDDSKNSLYLTMSDLKTEDTAVYYCARENHRYDVELAYWGQGTLVTVSS VL: DIQMTQSPSSLSASVGDRVTITCRASEIIYEYLAWYQQKPGKAPKLLIYKAKTHADGVPSRFSGSGSGTDFTFTISSLQPEDIATYYCKHHFGFPRTFGQGTKVEIKR | s⁻¹ | 0.02
H1041/L0442 (antibody, human IgG1, kappa, name in Kabat numbering, V domains shown, L442 = L395 + S31E) VH: QVQLVESGGGLVQPGGSLRLSCAASGFTFSEYYLSWVRQAPGKGLEWVGLIRNKDNGYHPEYSASVKGRFTISRDDSKNSLYLTMSDLKTEDTAVYYCARENHRYDVELAYWGQGTLVTVSS VL: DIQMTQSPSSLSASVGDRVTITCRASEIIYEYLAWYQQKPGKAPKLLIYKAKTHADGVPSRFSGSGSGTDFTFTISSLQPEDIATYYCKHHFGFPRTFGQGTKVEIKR | s⁻¹ | 0.015
H1029/L0442 (antibody, human IgG1, kappa, name in Kabat numbering, V domains shown, L442 = L395 + S31E) VH: QVQLVESGGGLVQPGGSLRLSCAASGFTFDKYYLSWVRQAPGKGLEWVGLIRNKDNHHTPEYSASVKGRFTISRDDSKNSLYLTMSDLKTEDTAVYYCARENHRYDVELAYWGQGTLVTVSS VL: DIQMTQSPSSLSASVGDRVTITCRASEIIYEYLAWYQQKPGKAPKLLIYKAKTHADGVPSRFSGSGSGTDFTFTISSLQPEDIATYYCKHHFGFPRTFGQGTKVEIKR | s⁻¹ | 0.0085
H1040/L0442 (antibody, human IgG1, kappa, name in Kabat numbering, V domains shown, L442 = L395 + S31E) VH: QVQLVESGGGLVQPGGSLRLSCAASGFTFSEYYLSWVRQAPGKGLEWVGLIRNKDNHHHPEYSASVKGRFTISRDDSKNSLYLTMSDLKTEDTAVYYCARENHRYDVELAYWGQGTLVTVSS VL: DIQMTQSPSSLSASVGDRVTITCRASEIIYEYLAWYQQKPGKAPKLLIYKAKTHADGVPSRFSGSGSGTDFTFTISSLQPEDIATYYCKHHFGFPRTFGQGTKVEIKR | s⁻¹ | 0.21
